# systemTested: T1, hTNFRSF12 amino acids a28-80-H60K-hIgG1-Fc (human)
# T1 construct: TWEAKR-Fc mutein, coated on the ELISA plate; also called TPP-1989
# testName: ELISA: TWEAKR-Fc construct coated at 62 ng/ml, biotinylated IgG titrated from 100 nM; token + marks IC50 of 1 to […] pM
outcomeMeasure: binding result

1. P4A8(TPP-1324) (antibody, human IgG1, kappa, V domains shown, human IgG1; variable domains from WO2009/140177 with a human IgG1 constant region added; biotinylated IgG in the ELISA) VH: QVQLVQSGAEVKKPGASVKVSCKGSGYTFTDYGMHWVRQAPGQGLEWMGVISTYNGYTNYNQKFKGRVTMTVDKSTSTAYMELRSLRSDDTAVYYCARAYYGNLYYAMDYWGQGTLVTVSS VL: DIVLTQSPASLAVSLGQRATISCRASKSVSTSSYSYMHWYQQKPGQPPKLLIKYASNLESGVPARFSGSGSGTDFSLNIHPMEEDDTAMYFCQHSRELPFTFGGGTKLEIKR: binds
